# measurement-notes: Particle size and polydispersity index (PDI) of nanolipid particles, dynamic light scattering
# Format: physicochemical
# test-parameters: LNP formulation prepared from the named cationic lipid, 25° C
property-name: PDI (%)

As a guide, the following entries are already answered.
[
  {
    "molecule": "CCCCCCCCCCCOC(=O)CCCCCN(CCCCCCCC(=O)OC(CCCCCCCC)CCCCCCCC)CCN(C)CCO",
    "unit-label": "%",
    "PDI": 25.5
  },
  {
    "molecule": "CCCCCCCCC(CCCCCCCC)COC(=O)CCCCCN(CCCCCC(=O)OCC(CCCCCCCC)CCCCCCCC)CCN(C)CCNC",
    "unit-label": "%",
    "PDI": 25.8
  },
  {
    "molecule": "CCCCCCC(CCCCCC)CCOC(=O)CCCCCN(CCCCCC(=O)OCCC(CCCCCC)CCCCCC)CCN(C)CCO",
    "unit-label": "%",
    "PDI": 20.7
  }
]

1. CCCCCCCCCCOC(=O)CCCN(CCCCCC(=O)OCC(CCCCCCCC)CCCCCCCC)C(=O)SCCCN(C)C
2. CCCCCCCCCCOC(=O)CCCN(CCCCCC(=O)OCC(CCCCCCCC)CCCCCCCC)CCN(C)CCOC
3. CCCCCCC(CCCCCC)CCOC(=O)CCCCCCCN(CCO)CCCCCCCC(=O)OCCC(CCCCCC)CCCCCC [Compound 23, reference compound]
Highest PDI first, then in falling order down to the smallest. Show the ranking through the labels, in the order asked for. 1, 2, 3
(1: 22.4%, 2: 13.7%, 3: 8.6%)
